Catalogue of growth inhibition values
- Run description: antimalarial activity against Dd2 strain (AID 2302);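 note: 0% = DMSO untreated growth and 100% = chloroquine plus artemisinin killed control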
- Measurement context: P. falciparum Dd2 in RBCs, LDH growth readout, 72 h; at 2 µM; hits give high values
Give just the numeric value; % need not be written.

Challenge: # get_value(readout='growth inhibition', item= `Cc1cc(N2CCCCC2)nc2ccc(NC(=O)c3cncc(Br)c3)cc12` )
Response given: 86

Challenge: Proceed to `O=C(Nc1ccc2c(c1)CN(Cc1ccc(N3CCCC3)o1)CCC2)c1ccoc1`
Response given: 76

Challenge: Please do the same for `O=C(NCCc1ccccc1)[C@H](Cc1ccccc1)Nc1ccnc(NCC2CCCCC2)n1` as well.
Response given: 53

###

- Run description: inhibition of 3D7 malaria parasite growth – strain 3D7 (AID 2306);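 note: 0% = DMSO wells and 100% = chloroquine plus artemisinin control wells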
- Measurement context: P. falciparum 3D7 erythrocytic growth, LDH absorbance, 72 h; at 2 µM; hits give high values
Readout: growth inhibition (%)
Write down the numeric answer in % and omit the unit.

>>> numeric_value("Cc1[nH]c2ccc(-c3ccc(OC(F)(F)F)cc3)cc2c(=O)c1C#N")
98

Challenge: Dear colleague, I am looking for the recorded growth inhibition of the following compound: `Cc1ccc(-n2nc(-c3ccccc3)c3cc(C(=O)NCCN)sc32)cc1`
Response given: 92

Challenge: Similarly, `Cc1cccc(C(=O)Nc2ccnc(N3CCC(N(C)Cc4ccccc4)CC3)c2)c1` ?
Response given: 93

Challenge: Lookup `CS(=O)(=O)c1ccc(CCNCc2ccc(-c3ccc(CNC4CCN(Cc5ccccc5)CC4)cc3)nc2)cc1`
Response given: 101

Challenge: Also `CCCCCCNCc1c(O)ccc2c(CNCCCCCC)c(O)ccc12` , if possible.
Response given: 102

Challenge: What do we get for `CN(C)CCCN1CCN(Cc2ccc(-c3ccc(-c4nc5ccccc5[nH]4)s3)cc2)CC1` ?
Response given: 102

Challenge: Please do the same for CN(Cc1cc(C(F)(F)F)cc(C(F)(F)F)c1)C(=O)C(Cc1ccc(F)cc1)C1CCCNC1 (stereo not given) as well.
Response given: 96

Challenge: Try this compound next: `COc1ccc(NC(=O)[C@H](CC(C)C)Nc2cc(C)nc(NCc3cccc(C)c3)n2)cc1`
Response given: 101

Challenge: Try this compound too: COc1ccc(NC(=O)C2c3ccccc3C(=O)N(C3CCCC3)C2c2cccs2)cc1OC (stereo not given)
Response given: 90

Challenge: Record: `O=C(Nc1cn(-c2ccc(OCc3cccc(F)c3)c(Cl)c2)c2ncncc12)c1ccncc1`
Response given: 100

Challenge: // same read-out, input: `COc1cc(OC)c(OC)cc1C=NNc1cc(C)nc2ccccc12`
Response given: 100

Challenge: Param item: `COc1ccc(-c2cccc(NC(=O)c3ccc(Cl)cc3)c2)cc1CN1CCCN(C)CC1`
Response given: 101

Challenge: Another: `Cc1ccc2c(NN=Cc3ccc(Cl)cc3)cc(C)nc2c1`
Response given: 100

Challenge: One more compound: `Cc1nc(N)nc(N)c1-c1cc(Cl)c(N)c(Cl)c1`
Response given: 94

Challenge: Can you check `CCCCc1ccc(NC(=O)Nc2cccc(CCNCc3ccccc3)c2)cc1` next?
Response given: 94

###

- Target of assay: L-lactate dehydrogenase (Plasmodium falciparum (isolate CDC / Honduras))
- Run description: PfLDH activity inhibition – cell lysate, 3D7 strain, counter-screen for P. falciparum growth inhibition project (AID 2304);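 note: 0% = vehicle and 100% = reference inhibitor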
- Measurement context: P. falciparum 3D7 crude extract, LDH APAD/NBT absorbance; at 2 µM; hits give high values
Readout: inhibition (%)
Express the result in % but write the number alone.

Challenge: Reported inhibition, compound `O=C(CCNc1ccnc(NCCc2ccc(F)cc2)n1)Nc1ccccc1` : ____
Response given: -4

Challenge: Similarly, CC(C)c1ccc(CN2CCCCC(NC(=O)c3cc(-c4ccccc4F)cs3)C2)cc1 (stereo not given) ?
Response given: -2

Challenge: Try this compound next: `CN1CCC(NCc2cccc(-c3cccc(S(=O)(=O)NCc4ccccc4)c3)c2)CC1`
Response given: -2

Challenge: Could you do the same for `COc1cc(OC)c(NC(=O)COc2ccc(C)cc2)cc1Cl` , please?
Response given: 3

Challenge: And for `COc1ccc(NC(=O)[C@H](CC(C)C)Nc2cc(C)nc(NCc3ccccc3C)n2)cc1` ?
Response given: 0

###

- Run description: HepG2 cytotoxicity, primary screen, cytotoxicity control for P. falciparum antimalarial project, cell-based, ATP luminescence (AID 2303);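 note: 0% = DMSO wells and 100% = digitonin-killed cells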
- Measurement context: HepG2 viability, 24-48 h, at 10 µM, hits give high values
Readout: inhibition (%)
Write it as a number; the unit % goes unstated.

Examples with their reported inhibition follow.
>>> numeric_value("O=C(/C=C/c1ccc(Cl)c(Cl)c1)N1CCC(CN2CCC(Cc3cc4ccccc4[nH]3)CC2)CC1")
49
>>> numeric_value("CC(=O)Oc1cc(OCc2ccccc2)c(OC(C)=O)c(OCc2ccccc2)c1")
11
>>> numeric_value("O=C(/C=C/C=C/c1ccc(Cl)c(Cl)c1)NCCCCCN1CCCC2CCCCC21 (stereo not given)")
41

Challenge: So what's the measured inhibition for this one? `FC(F)(F)c1cc(Nc2ncnc3ccc(Br)cc23)ccc1OCc1ccccc1`
Response given: 12

Challenge: `O=C(/C=C/c1cc(C(F)(F)F)ccc1F)NCCCCCN1CCC(c2c[nH]c3ccccc23)CC1` ?
Response given: 39

###

- Target of assay: L-lactate dehydrogenase (Plasmodium falciparum (isolate CDC / Honduras))
- Run description: PfLDH activity inhibition – cell lysate, 3D7 strain, counter-screen for P. falciparum growth inhibition project (AID 2304);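 note: 0% = vehicle and 100% = reference inhibitor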
- Measurement context: P. falciparum 3D7 crude extract, LDH APAD/NBT absorbance; at 2 µM; hits give high values
# inhibition listing for each entry below
Write the value in % as a bare number.

Challenge: // lookup inhibition | system=L-lactate dehydrogenase (Plasmodium falciparum (isolate CDC / Honduras)) | key= `Cc1cc(N2CCCC2)nc(/N=C(\N)Nc2cccc(C(F)(F)F)c2)n1`
Response given: 1

Challenge: Thanks! And `c1ccc(-c2cc3cccc(-c4nc5ccncc5[nH]4)c3o2)cc1` ?
Response given: -6

Challenge: What would you report for `O=C(NC1CCN(Cc2ccc(F)cc2)CC1)c1ccc(-c2cccc(C(F)(F)F)c2)s1` ?
Response given: 4

Challenge: Then this compound: `Cc1cccc2[nH]c(-c3cccc(-c4cccc(NC(=O)c5cncn5C)c4)c3)nc12`
Response given: 0

Challenge: Field entry: O=C(Cc1ccccc1)NC(Nc1ccc([N+](=O)[O-])cc1)C(Cl)(Cl)Cl (stereo unspecified)
Response given: 1

Challenge: `CC(=O)Nc1ccc2[nH]cc(C3CCN(CCC4CCN(C(=O)/C=C/c5ccc(Cl)c(Cl)c5)CC4)CC3)c2n1` , same question.
Response given: 1

###

- Run description: HepG2 cytotoxicity, primary screen, cytotoxicity control for P. falciparum antimalarial project, cell-based, ATP luminescence (AID 2303);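 note: 0% = DMSO wells and 100% = digitonin-killed cells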
- Measurement context: HepG2 viability, 24-48 h, at 10 µM, hits give high values
Active and inactive are the calls of the source.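 How the source made its calls: active means inhibition above 50%; inactive means the rest.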
Known inhibition of a selection of compounds

Example cases with answers are listed next.
>>> result("CC(=O)Nc1cccc(C(=O)Nc2cccc(-c3csc(-c4nc5ccccc5[nH]4)c3)c2)c1")
"39% (inactive)"
>>> result("CC(C)CNCc1ccc(-c2cccc(-c3nc4ccccc4[nH]3)c2)cc1")
"53% (active)"
>>> result("COc1ccc2nc3ccccc3c(NCCN3CCN(C)CC3)c2c1")
"11% (inactive)"

Consider the additional compound presented here.
Challenge: Return reported inhibition; argument: O=c1ccc2ccc(F)c3c2n1CC3CN1CCC(NCc2ccc(-c3cccc(Cl)c3)nc2)CC1 (centres undefined)
Response given: 16% (inactive)

###

- Run description: inhibition of 3D7 malaria parasite growth – strain 3D7 (AID 2306);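 note: 0% = DMSO wells and 100% = chloroquine plus artemisinin control wells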
- Measurement context: P. falciparum 3D7 erythrocytic growth, LDH absorbance, 72 h; at 2 µM; hits give high values
Reported growth inhibition values are given for each entry in this list.
Record the value in %, omitting the unit from your answer.

Field: example entries. Status: answers known.
>>> numeric_value("CCOc1cc(C(=O)Nc2ccccc2N2CCN(S(C)(=O)=O)CC2)cc(OCC)c1OCC")
91
>>> numeric_value("CCC1CCc2cc(N)cc(-c3nc4c(c(C)nn4CC)c(=O)[nH]3)c2O1 (centres undefined)")
86
>>> numeric_value("Clc1ccccc1OCc1ccccn1")
85
>>> numeric_value("N=c1c2c(n(Cc3ccccc3)c3c1CCC3)CCCC2")
86
>>> numeric_value("O=C(Nc1ccc(Cl)c(C(F)(F)F)c1)c1ccc(Cl)c([N+](=O)[O-])c1")
87

Challenge: Any idea what growth inhibition was measured for `CN(CCc1ccccn1)Cc1ccc(-c2ccc(-c3nc4ccccc4[nH]3)s2)cc1` ?
Response given: 100

Challenge: Next up: `COc1c(CCNCCCCNCCc2cc(Cl)c3ccccc3c2OC)cc(Cl)c2ccccc12`
Response given: 99

Challenge: Also O=C(Cc1cccc2ccccc12)NC1CCN(c2ccnc3cc(Cl)ccc23)C1 (centres undefined) ?
Response given: 82

Challenge: Then what about the molecule CCOc1ccc(C(C)NC(=O)Cc2ccccc2F)cc1OCC (centres undefined) ?
Response given: 96

Challenge: Queued: `N#Cc1c(N)nc(SCC(=O)Nc2cc(C(F)(F)F)ccc2Cl)c(C#N)c1-c1cccs1`
Response given: 90

Challenge: Repeat for the following molecule: `COc1ccc(NC(=O)/C=C/c2ccc(Cl)c(C(F)(F)F)c2)cc1OCCN(C(C)C)C(C)C`
Response given: 95
